Each entry below carries its reported IC50.
test system: DMS 114 tumor spheroids, viability % test/control; assay: Anticancer human tumor DMS 114 cell line growth inhibition; conditions: curve of first compound; second compound 0.00949 µM; spheroids with HUVEC and MSC;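 further: spheroids exposed to compounds for 7 days before read-out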
Give the number; nM is assumed, so skip it.

// solved cases for IC50 follow
CNCc1ccc(-c2cc(-c3nc(-c4ccc(S(=O)(=O)C(C)C)cc4)cnc3N)on2)cc1 + CC[C@@]1(O)C(=O)OCc2c1cc1n(c2=O)Cc2cc3c(CN(C)C)c(O)ccc3nc2-1	25
COc1cc(C)[nH]c(=O)c1CN1CCc2c(Cl)cc(C(OC)C3COC3)c(Cl)c2C1=O (stereo not given) + CC[C@@]1(O)C(=O)OCc2c1cc1n(c2=O)Cc2cc3c(CN(C)C)c(O)ccc3nc2-1	1920

We now examine a further molecule.
Data request, read-out IC50, for O=C(c1cc(Cc2n[nH]c(=O)c3ccccc23)ccc1F)N1CCN(C(=O)C2CC2)CC1 + CC[C@@]1(O)C(=O)OCc2c1cc1n(c2=O)Cc2cc3c(CN(C)C)c(O)ccc3nc2-1
1830
